Assay: Brain distribution after single intraperitoneal dose in FVB wild-type, Bcrp1-/-, Mdr1a/b-/- and Mdr1a/b-/- Bcrp1-/- mice
Format: in vivo, mouse (FVB)
Details: FVB, mouse, brain, intraperitoneal, 10 mg/kg, 10 mg/kg i.p.; 2 hrs; Wild-type; read-out: Cbrain
READOUT_KIND: concentration at 2 h (ng/mL)
Give the value, in units of ng/mL, as a plain number.

Which concentration at 2 h value belongs to "Cc1ccc(C(=O)N(CCCN)[C@@H](c2nc3cc(Cl)ccc3c(=O)n2Cc2ccccc2)C(C)C)cc1" ?
180

----------
Test: in vivo
Details: Sprague-Dawley, rat, normal brain, ip, 10 mg/kg
READOUT_KIND: concentration at 2 h (ng/mL)
Give the value, in units of ng/mL, as a plain number.

Which concentration at 2 h value belongs to Cc1ccc(C(=O)N(CCCN)[C@@H](c2nc3cc(Cl)ccc3c(=O)n2Cc2ccccc2)C(C)C)cc1 [Ispinesib] ?
60

----------
Assay: Brain distribution after single intraperitoneal dose in FVB wild-type, Bcrp1-/-, Mdr1a/b-/- and Mdr1a/b-/- Bcrp1-/- mice
Type: in vivo, mouse (FVB)
Settings: FVB, mouse, brain, intraperitoneal, 10 mg/kg, 10 mg/kg i.p.; 2 hrs; Bcrp1a/b-/-; read-out: Cbrain
READOUT_KIND: concentration at 2 h (ng/mL)
Give the value, in units of ng/mL, as a plain number.

Which concentration at 2 h value belongs to "Cc1ccc(C(=O)N(CCCN)[C@@H](c2nc3cc(Cl)ccc3c(=O)n2Cc2ccccc2)C(C)C)cc1" ?
140

----------
Assay: Brain distribution after single intraperitoneal dose in FVB wild-type, Bcrp1-/-, Mdr1a/b-/- and Mdr1a/b-/- Bcrp1-/- mice
Format: in vivo, mouse (FVB)
Conditions: FVB, mouse, brain/plasma, ip, 10 mg/kg, 10 mg/kg i.p.; 6 hrs; Mdr1a/b-/-; read-out: Kp brain (Cbrain/Cplasma)
READOUT_KIND: Kp at 6 h
Answer with the value's number alone.

Which Kp at 6 h value belongs to "Cc1ccc(C(=O)N(CCCN)[C@@H](c2nc3cc(Cl)ccc3c(=O)n2Cc2ccccc2)C(C)C)cc1" ?
1.52

----------
Test: in vivo
Conditions: FVB, mouse, plasma, iv, 5 mg/kg
READOUT_KIND: half-life (h)
Give the value, in units of h, as a plain number.

Which half-life value belongs to "Cc1ccc(C(=O)N(CCCN)[C@@H](c2nc3cc(Cl)ccc3c(=O)n2Cc2ccccc2)C(C)C)cc1" ?
4.8

----------
Assay: in vivo
Conditions: FVB, mouse, plasma, intraperitoneal, 10 mg/kg
READOUT_KIND: concentration at 6 h (ng/mL)
Give the value, in units of ng/mL, as a plain number.

Which concentration at 6 h value belongs to "Cc1ccc(C(=O)N(CCCN)[C@@H](c2nc3cc(Cl)ccc3c(=O)n2Cc2ccccc2)C(C)C)cc1" ?
730

----------
Assay: Brain distribution after single intraperitoneal dose in FVB wild-type, Bcrp1-/-, Mdr1a/b-/- and Mdr1a/b-/- Bcrp1-/- mice
Format: in vivo, mouse (FVB)
Conditions: FVB, mouse, brain/plasma, ip, 10 mg/kg, 10 mg/kg i.p.; 6 hrs; Bcrp1a/b-/-; read-out: Kp brain (Cbrain/Cplasma)
READOUT_KIND: Kp at 6 h
Answer with the value's number alone.

Which Kp at 6 h value belongs to Cc1ccc(C(=O)N(CCCN)[C@@H](c2nc3cc(Cl)ccc3c(=O)n2Cc2ccccc2)C(C)C)cc1 [Ispinesib] ?
0.15
